target: HCoV-OC43 Mpro (Human coronavirus OC43, UniProt P0C6X6); assay: HCoV-OC43 Mpro enzymatic inhibition assay (fluorescence); format: biochemical
Sequence (P0C6X6 3247-3549 limits assumed): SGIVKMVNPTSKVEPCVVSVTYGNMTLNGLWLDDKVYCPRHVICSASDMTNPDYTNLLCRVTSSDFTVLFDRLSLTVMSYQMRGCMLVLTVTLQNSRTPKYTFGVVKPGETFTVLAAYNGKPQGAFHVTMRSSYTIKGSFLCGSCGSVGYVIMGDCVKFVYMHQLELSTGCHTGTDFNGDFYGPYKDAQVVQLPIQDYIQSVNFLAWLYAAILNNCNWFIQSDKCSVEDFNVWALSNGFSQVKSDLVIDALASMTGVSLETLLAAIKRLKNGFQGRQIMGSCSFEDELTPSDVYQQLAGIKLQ
MEASUREMENT LABEL: IC50 (nM)
The answer is to be given in nM; state only the numeric part.

Ask: Value lookup for IC50; key = N#Cc1ccc2cc(C(=O)N3CC4(CC4)C[C@H]3C(=O)N[C@H](C=O)C[C@@H]3CCNC3=O)[nH]c2c1 [Compound 82]
Result: 33.7

Ask: Now the same for CC1(C)[C@@H]2[C@@H](C(=O)N[C@H](C=O)C[C@@H]3CCNC3=O)N(C(=O)c3cc4c(F)cccc4[nH]3)C[C@@H]21 [Compound 15]
Result: 32.8

Ask: Now the same for CC1(C)[C@@H]2[C@@H](C(=O)N[C@H](C=O)C[C@@H]3CCCNC3=O)N(C(=O)CC3CCCCC3)C[C@@H]21 [Compound 79]
Result: 38.6

Ask: Now the same for CC1(C)[C@@H]2[C@@H](C(=O)N[C@H](C=O)C[C@@H]3CCNC3=O)N(C(=O)c3cc4ccc(C#N)cc4[nH]3)C[C@@H]21 [Compound 74]
Result: 86.4

Ask: Now the same for COc1cccc2[nH]c(C(=O)N3C[C@H]4[C@@H]([C@H]3C(=O)N[C@H](C=O)C[C@@H]3CCNC3=O)C4(C)C)cc12 [Compound 65]
Result: 25.2

Ask: Now the same for C[C@@H](C(=O)N1C[C@H]2[C@@H]([C@H]1C(=O)N[C@H](C=O)C[C@@H]1CCNC1=O)C2(C)C)c1ccccc1 [Compound 37]
Result: 36.7
